- target_or_test_system: Hordeum HPPD L353M, P321R, L320Q (Hordeum vulgare, UniProt O48604, L320Q/L353M/P321R)
- Construct: His-tag (N); made in house; host or cells: E. coli BL21 (DE3)
- Sequence (O48604 whole entry R146V/R147D/R148G/A164G/L320Q/P321R/L353M): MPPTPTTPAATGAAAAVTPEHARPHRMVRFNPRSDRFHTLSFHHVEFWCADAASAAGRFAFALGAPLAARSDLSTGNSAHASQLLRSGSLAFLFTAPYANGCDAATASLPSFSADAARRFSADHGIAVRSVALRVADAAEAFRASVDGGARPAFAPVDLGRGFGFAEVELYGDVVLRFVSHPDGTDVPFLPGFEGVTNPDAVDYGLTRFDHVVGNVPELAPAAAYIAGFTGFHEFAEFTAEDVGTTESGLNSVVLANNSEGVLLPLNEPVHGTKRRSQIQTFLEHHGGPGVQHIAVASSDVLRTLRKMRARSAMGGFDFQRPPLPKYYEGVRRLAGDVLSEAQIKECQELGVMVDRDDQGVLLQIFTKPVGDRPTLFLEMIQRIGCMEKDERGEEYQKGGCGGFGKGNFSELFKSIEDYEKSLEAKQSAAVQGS
- run_description: HPPD activity assay, mutant
- Assay type: biochemical
- condition_details: Hordeum HPPD variant L353M, normalized on wild-type
Normalized tolerance index (TI) reference
Lab note: jot down the number only; don't add units.

compound	Normalized tolerance index (TI)
COCCOCc1nc(C(F)(F)F)ccc1C(=O)C1=C(O)C2CCC(C2)C1=O (stereo not shown) [Inhibitor 3]	0.6
Cc1c(C(=O)c2cnn(C)c2O)ccc(S(C)(=O)=O)c1C1=NOCC1 [Inhibitor 1]	5.3
CS(=O)(=O)c1ccc(C(=O)C2C(=O)CCCC2=O)c([N+](=O)[O-])c1 [Inhibitor 2]	2.2

In: Report Normalized tolerance index (TI) for CS(=O)(=O)c1ccc(C(=O)C2C(=O)CCCC2=O)c(Cl)c1COCC(F)(F)F [Inhibitor 4]
Out: 1.3

====

- target_or_test_system: Hordeum HPPD L353M, P321R, L320N (Hordeum vulgare, UniProt O48604, L320N/L353M/P321R)
- Construct: His-tag (N); made in house; host or cells: E. coli BL21 (DE3)
- Sequence (O48604 whole entry R146V/R147D/R148G/A164G/L320N/P321R/L353M): as the sequence (O48604 whole entry R146V/R147D/R148G/A164G/L320Q/P321R/L353M) above, with Q320N counted along it
- run_description: HPPD activity assay, mutant
- Format: biochemical
- condition_details: Hordeum HPPD variant L353M, normalized on wild-type
observable: Normalized tolerance index (TI)

molecule	result
Cc1c(C(=O)c2cnn(C)c2O)ccc(S(C)(=O)=O)c1C1=NOCC1	2.6
COCCOCc1nc(C(F)(F)F)ccc1C(=O)C1=C(O)C2CCC(C2)C1=O (stereo not shown)	0.6
CS(=O)(=O)c1ccc(C(=O)C2C(=O)CCCC2=O)c(Cl)c1COCC(F)(F)F	2.2

Here is the next item to consider.
In: Report Normalized tolerance index (TI) for CS(=O)(=O)c1ccc(C(=O)C2C(=O)CCCC2=O)c([N+](=O)[O-])c1
Out: 0.4

====

- target_or_test_system: Arabidopsis HPPD (SEQ ID NO:53) (Arabidopsis thaliana)
- Sequence (P93836 1-445): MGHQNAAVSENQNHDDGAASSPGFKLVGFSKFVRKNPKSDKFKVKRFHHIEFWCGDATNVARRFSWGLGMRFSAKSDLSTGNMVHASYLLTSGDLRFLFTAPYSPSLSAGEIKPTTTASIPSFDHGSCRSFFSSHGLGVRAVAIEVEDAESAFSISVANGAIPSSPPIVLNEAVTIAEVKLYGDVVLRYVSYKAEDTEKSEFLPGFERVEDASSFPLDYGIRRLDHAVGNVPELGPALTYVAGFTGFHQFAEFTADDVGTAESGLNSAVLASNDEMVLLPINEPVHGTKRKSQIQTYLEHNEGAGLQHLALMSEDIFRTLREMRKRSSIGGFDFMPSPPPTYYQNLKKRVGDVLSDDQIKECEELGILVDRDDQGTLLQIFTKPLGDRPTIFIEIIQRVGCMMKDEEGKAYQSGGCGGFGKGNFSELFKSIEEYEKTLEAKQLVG
observable: Ki (nM)
Kindly answer with a numeric value in nM, unit omitted.

In: Report Ki for CS(=O)(=O)c1ccc(C(=O)C2C(=O)CCCC2=O)c([N+](=O)[O-])c1 [Inhibitor 2]
Out: 36

====

- target_or_test_system: Arabidopsis HPPD M335H, P336A (Arabidopsis thaliana, UniProt P93836, M335H/P336A);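 note: reaction started with 4-HPP at 0.05 mM after 30 min preincubation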
- Construct: His6 (N); made in house; host or cells: E. coli BL21 (DE3)
- Type: biochemical
- condition_details: Arabidopsis HPPD variant M335H, normalized on wild-type
Normalized tolerance index (TI) reference
Lab note: jot down the number only; don't add units.

Take a look at these entries with their results.
compound	observable	number
CS(=O)(=O)c1ccc(C(=O)C2C(=O)CCCC2=O)c(Cl)c1COCC(F)(F)F	Normalized tolerance index (TI)	0.1
COCCOCc1nc(C(F)(F)F)ccc1C(=O)C1=C(O)C2CCC(C2)C1=O (stereo not shown)	Normalized tolerance index (TI)	0.1
CS(=O)(=O)c1ccc(C(=O)C2C(=O)CCCC2=O)c([N+](=O)[O-])c1	Normalized tolerance index (TI)	0.1

Here is the next item to consider.
In: Report Normalized tolerance index (TI) for Cc1c(C(=O)c2cnn(C)c2O)ccc(S(C)(=O)=O)c1C1=NOCC1
Out: 3.4
